Target: human M5 receptor (Homo sapiens (Human), UniProt P08912)
Sequence (P08912 whole entry): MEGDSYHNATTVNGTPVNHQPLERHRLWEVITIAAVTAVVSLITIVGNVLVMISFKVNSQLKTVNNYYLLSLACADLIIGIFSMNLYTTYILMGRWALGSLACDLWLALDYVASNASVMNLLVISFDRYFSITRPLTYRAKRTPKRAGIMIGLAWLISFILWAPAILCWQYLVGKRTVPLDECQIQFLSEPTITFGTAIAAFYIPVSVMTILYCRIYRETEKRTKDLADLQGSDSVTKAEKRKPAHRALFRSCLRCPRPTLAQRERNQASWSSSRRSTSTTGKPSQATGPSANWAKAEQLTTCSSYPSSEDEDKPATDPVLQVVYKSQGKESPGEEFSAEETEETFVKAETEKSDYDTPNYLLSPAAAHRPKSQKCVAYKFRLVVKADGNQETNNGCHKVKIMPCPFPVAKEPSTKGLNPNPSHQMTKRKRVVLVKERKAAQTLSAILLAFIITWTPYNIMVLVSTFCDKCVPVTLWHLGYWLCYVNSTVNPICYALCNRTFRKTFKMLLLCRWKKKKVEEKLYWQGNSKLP
Assay: Radioligand (tritiated N-methylscopolamine) binding assay, M5
Conditions: CHO cell membranes expressing human M5; 1.5 nM tritiated N-methylscopolamine; 90 min, 37° C.; read-out: Ki against M5 receptor (Table 21, M5)
ASSAY ENDPOINT: Ki

>  <MOLECULE>
C[C@@H]1CN(c2ncc(C(F)(F)F)c(N)n2)C[C@@H](C)N1C(=O)NCCC1CCN(Cc2ccccc2)CC1 [26-1]

>  <DATA VALUE>
> 1000 nM

$$$$
>  <MOLECULE>
C[C@@H]1CN(c2ncc(C#N)cn2)C[C@H](C)N1C(=O)NCCC1CCN(Cc2ccc(F)cc2)CC1 [6-48]

>  <DATA VALUE>
> 1000 nM

$$$$
>  <MOLECULE>
C[C@@H]1CN(c2ncc(Br)cn2)CCN1C(=O)NCCC1CCN(Cc2ccccc2)CC1 [5-31]

>  <DATA VALUE>
100 to 1000 nM

$$$$
>  <MOLECULE>
C[C@@H]1CN(c2ccc(F)c(C(F)F)c2)CCN1C(=O)NCCC1CCN(Cc2ccccc2)CC1 [7-9]

>  <DATA VALUE>
> 1000 nM

$$$$
